The origin of these recorded values is PubChem BioAssay (NCI).

Tested on: MDA-MB-231 breast
run-description: NCI-60 one-dose screen, 48 h
test-conditions: 10 µM unless noted
The panel holds about 83,000 compounds, 20% with a hit somewhere; the sample as a whole holds those more often. Calls of active or inactive are those of the source. Rule for the calls: active = growth percent below 10; inactive = the rest.
Outcomes: active, inactive

| compound | class-name |
| --- | --- |
| O=C(NC1CCC(Br)CC1)C1CCCC(S(=O)(=O)NC2CCCCC2)C1 (stereo not drawn) | inactive |
| COc1ccc(C(c2cc(OC)c(OC)c(OC)c2)N2CCCCC2)cc1 (stereo not drawn) | inactive |
| O=C(Cc1ccc(/C=C/C(=O)c2ncc[nH]2)cc1)Nc1cc(F)c(F)c(F)c1 | inactive |
| O=C1OCC2=C1C(c1ccccc1)c1cc3c(cc1N2CCO)OCCO3 (stereo not drawn) | inactive |
| CCOC(=O)C(CCN(C)C)c1ccccc1 (stereo not drawn) | inactive |
| COC12C=C/C(=C(/C(=O)OCc3cncnc3)C(=O)CCCCCCCCC3(OC)C=C/C(=C(/C(=O)OCc4cncnc4)C(=O)CCCCCCCC1)O3)O2 | active |
| CCOC(=O)C/C(=N\Nc1cc(=O)[nH]c2ccc(C)cc12)C(=O)OCC | inactive |
| Cc1ccc2c(c1)nc(C)n2-c1ncnc2c1CC(C)c1cc(O)ccc1N2C (stereo not drawn) | inactive |
| C=C1C(=O)O[C@H]2[C@H]1CC/C(COC(=O)/C=C\C(=O)NCc1ccc(Cn3c(=O)sn(CCCCl)c3=O)cc1)=C\CC[C@@]1(C)O[C@@H]21 | inactive |
| Cc1ncc(C(=O)Nc2ccc(CN3CCN(C)CC3)c(C(F)(F)F)c2)cc1C#Cc1cnc(N)c2ccc(C#N)cc12 | active |
| C=C(C)[C@@H]1CC[C@]2(CO)CC[C@]3(C)[C@H](CC[C@@H]4[C@@](C)(CCCN)[C@H](C(=C)C)CC[C@]43C)[C@@H]12 | active |
| COc1cc2c3c(c4c5ccccc5[nH]c4c2c(OC)c1OC)C(=O)N(CCN1CCCCC1)C3=O | inactive |
| CNC(=O)c1cc(Oc2ccc3c(c2)sc2nc(-c4cc(C(F)(F)F)cc(C(F)(F)F)c4)cn23)ccn1 | inactive |
| C=C1SC(=Nc2ccccc2Cl)N(C(=O)c2sc3ccccc3c2Cl)C1(C)C | inactive |
| Nc1cc(-c2ccc(Cl)cc2)nn1-c1nnc(/C=C/c2ccco2)c(=O)[nH]1 | inactive |
| Fc1cccc(-c2nc(-c3c[nH]c4ncccc34)cs2)c1 | inactive |
| Cc1cccc(-c2nc(C(C)C)sc2-c2ccnc(NCCCNS(=O)(=O)c3ccc(Cl)cc3)c2)c1 | inactive |
| CCOC(=O)CC[C@H](NC(=O)c1ccc(N(C)Cc2cnc3nc(N)nc(N)c3n2)c2ccccc12)C(=O)OCC | inactive |
